test system: COLO 205; assay: NCI tumour cell line growth inhibition, 48 h
Activity calls are given as the source filed them. No stated cut-off is given here; in the data, active = GI50 up to about 1.1 µM and inactive = higher.
Possible outcomes: yes (1) = active, no (0) = inactive

| compound | assigned.class |
| --- | --- |
| COc1ccc(CN(CCc2c[nH]c3ccccc23)Cc2ccc(OC)cc2)cc1 | no (0) |
| CCOC(=O)C1=CCOc2cc(N(C)C)ccc21 | no (0) |
| COC(=O)c1sc2c(c1C(=O)OC)/C(=N/c1ccc(OC)cc1)S/C2=N\c1ccc(OC)cc1 | yes (1) |
| c1ccc2c(c1)CCN2CCc1c[nH]c2ccccc12 | no (0) |
| COc1cc2c(cc1OCCCCOc1cc3c(cc1OC)C(=O)N1CCC[C@H]1C(=O)N3)N=C[C@@H]1CCCN1C2=O | no (0) |
| C/C(=N\c1cccc(Cl)c1)c1ccncc1 | no (0) |
| CCN1CCc2sc3nc(S)n(C)c(=O)c3c2C1 | no (0) |
| C=C1CC[C@@H]2C(C)(C)CCC[C@@]2(C)[C@@H]1Cc1cc(O)ccc1O | no (0) |
| CC(=O)O[C@]12CCCC1C1(O)C(O)CCCC12 (stereo not given in full) | no (0) |
| ON=C(CC(O)(C(F)(F)Cl)C(F)(F)Cl)CC(O)(C(F)(F)Cl)C(F)(F)Cl | no (0) |

Entry source: ChEMBL document CHEMBL1201862
